# measurement.target: PPAR-α (Homo sapiens, UniProt Q07869)
# Construct: host or cells: CV-1
# Sequence (Q07869 whole entry, species assumed): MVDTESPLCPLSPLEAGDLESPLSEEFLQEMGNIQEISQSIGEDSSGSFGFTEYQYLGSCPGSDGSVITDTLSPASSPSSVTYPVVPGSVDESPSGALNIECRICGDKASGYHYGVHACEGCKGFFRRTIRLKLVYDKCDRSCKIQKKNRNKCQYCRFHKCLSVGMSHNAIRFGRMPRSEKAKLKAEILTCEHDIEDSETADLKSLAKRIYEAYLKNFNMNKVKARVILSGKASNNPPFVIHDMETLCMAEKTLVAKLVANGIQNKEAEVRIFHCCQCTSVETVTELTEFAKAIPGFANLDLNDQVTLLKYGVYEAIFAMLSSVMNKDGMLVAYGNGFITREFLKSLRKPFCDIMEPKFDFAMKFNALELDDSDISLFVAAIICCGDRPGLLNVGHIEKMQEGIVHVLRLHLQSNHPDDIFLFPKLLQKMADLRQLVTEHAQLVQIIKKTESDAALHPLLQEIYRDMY
# assay.method.text: cell-based PPAR transactivation (luciferase) assay, PPAR-α
# condition.label: 24 h; compounds 10 µM; relative to maximum activation with GW7647 (10 µM); PPAR-Luc in CV-1 cells; read-out: % max PPAR-α
metric: activation at 10 µM (%)

# structure.smiles.string, measurement.target, readout.number
rows = [
    ("O=C(COc1ccc2c(ccn2Cc2ccc(C(=O)O)cc2)c1)Nc1ccc(Cl)cc1Cl", "PPAR-α (Homo sapiens, UniProt Q07869)", -20),
]

a. O=C(COc1ccc2ccn(Cc3cccc(C(=O)O)c3)c2c1)Nc1ccc(Cl)cc1Cl
b. O=C(O)Cc1cn(Cc2ccccc2)c2cc(OCC(=O)Nc3ccc(Cl)cc3Cl)ccc12
c. O=C(COc1ccc2ccn(Cc3ccccc3C(=O)O)c2c1)Nc1ccc(Cl)cc1Cl
Highest activation at 10 µM first, then in falling order down to the smallest. Response format: the labels, sorted as the prompt asks.
a, c, b
(a: 78.2%, c: 51.8%, b: 31.7%)

###

# measurement.target: PPAR-δ (Homo sapiens)
# Construct: host or cells: HEK293t
# Sequence (Q03181 whole entry, species assumed): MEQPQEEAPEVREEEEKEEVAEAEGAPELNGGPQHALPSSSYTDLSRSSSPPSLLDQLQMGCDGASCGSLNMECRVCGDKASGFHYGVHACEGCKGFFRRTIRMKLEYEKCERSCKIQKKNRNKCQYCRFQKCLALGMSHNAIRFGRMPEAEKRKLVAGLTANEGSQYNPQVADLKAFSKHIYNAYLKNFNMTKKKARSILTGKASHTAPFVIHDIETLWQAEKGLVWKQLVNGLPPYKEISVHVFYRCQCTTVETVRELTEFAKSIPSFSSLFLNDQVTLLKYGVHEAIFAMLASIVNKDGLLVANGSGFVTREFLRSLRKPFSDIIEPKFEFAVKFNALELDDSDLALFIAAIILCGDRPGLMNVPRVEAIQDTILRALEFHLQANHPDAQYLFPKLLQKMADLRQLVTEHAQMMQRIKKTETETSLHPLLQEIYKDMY
# assay.method.text: cell-based PPAR transactivation (luciferase) assay, PPAR-δ
# condition.label: compounds 10 µM; relative to maximum activation with GW0742 (10 μM); PPAR-Luc in HEK293t cells; read-out: % max PPAR-δ
metric: activation at 10 µM (%)

# structure.smiles.string, activation at 10 µM / %
records = [
    ("O=C(COc1ccc2ccn(Cc3ccccc3C(=O)O)c2c1)Nc1ccc(Cl)cc1Cl", 86.7),
]

a. O=C(COc1ccc2c(c1)c(Cc1ccccc1)cn2Cc1ccccc1C(=O)O)Nc1ccc(Cl)cc1Cl
b. CC(C)=CCc1cn(Cc2ccccc2C(=O)O)c2cc(OCC(=O)Nc3ccc(Cl)cc3Cl)ccc12
c. O=C(O)Cc1c[nH]c2cc(OCC(=O)Nc3ccc(Cl)cc3Cl)ccc12
Highest activation at 10 µM first, then in falling order down to the smallest. Response format: the labels, sorted as the prompt asks.
a, b, c

###

# measurement.target: PPAR-γ (Homo sapiens)
# Construct: host or cells: CV-1
# Sequence (P37231 whole entry, species assumed): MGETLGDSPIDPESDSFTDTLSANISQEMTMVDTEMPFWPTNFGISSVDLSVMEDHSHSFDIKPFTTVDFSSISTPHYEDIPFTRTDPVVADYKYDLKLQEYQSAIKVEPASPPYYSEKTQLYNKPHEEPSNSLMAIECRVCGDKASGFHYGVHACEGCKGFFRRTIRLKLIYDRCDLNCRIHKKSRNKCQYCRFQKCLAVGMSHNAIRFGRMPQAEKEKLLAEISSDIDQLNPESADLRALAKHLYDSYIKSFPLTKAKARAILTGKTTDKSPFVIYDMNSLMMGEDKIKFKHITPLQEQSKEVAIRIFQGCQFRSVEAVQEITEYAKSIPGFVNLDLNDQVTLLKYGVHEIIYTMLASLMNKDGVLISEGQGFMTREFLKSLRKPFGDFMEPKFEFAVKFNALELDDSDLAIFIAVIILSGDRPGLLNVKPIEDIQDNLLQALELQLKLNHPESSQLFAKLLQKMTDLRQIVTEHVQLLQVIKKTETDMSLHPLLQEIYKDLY
# assay.method.text: cell-based PPAR transactivation (luciferase) assay, PPAR-γ
# condition.label: 24 h; compounds 10 µM; relative to maximum activation with pioglitazone (10 µM); PPAR-Luc in CV-1 cells; read-out: % max PPAR-γ
# Description: The PPAR activities of the synthesized dichloroanilide-linked indole analogs were assessed using a standard cell-based transactivation assay in CV-1 cells. […] Transient transfection and luciferase assay was carried out. […] The luciferase activity in the cell lysates was measured using a luciferase assay system (Promega Corp., Madison, WI, USA), and the β-galactosidase activity was determined by measuring the absorbance at 410 nm using an ELISA plate reader. […]
metric: activation at 10 µM (%)

# structure.smiles.string, readout.number
data = [
    ("O=C(COc1ccc2c(ccn2Cc2ccccc2C(=O)O)c1)Nc1ccc(Cl)cc1Cl", 189),
    ("O=C(COc1ccc2c(ccn2Cc2cccc(C(=O)O)c2)c1)Nc1ccc(Cl)cc1Cl", 42),
    ("CC(C)=CCc1cn(Cc2ccccc2C(=O)O)c2cc(OCC(=O)Nc3ccc(Cl)cc3Cl)ccc12", 9.55),
    ("O=C(COc1ccc2ccn(Cc3ccccc3C(=O)O)c2c1)Nc1ccc(Cl)cc1Cl", 74.5),
    ("O=C(O)Cc1c[nH]c2cc(OCC(=O)Nc3ccc(Cl)cc3Cl)ccc12", 8.66),
    ("O=C(COc1ccc2ccn(Cc3cccc(C(=O)O)c3)c2c1)Nc1ccc(Cl)cc1Cl", 127),
]

I. O=C(COc1ccc2c(ccn2Cc2ccc(C(=O)O)cc2)c1)Nc1ccc(Cl)cc1Cl
II. O=C(O)Cc1cn(Cc2ccccc2)c2cc(OCC(=O)Nc3ccc(Cl)cc3Cl)ccc12
// which entry has the larger activation at 10 µM value, I or II ? Output the label that corresponds to your choice.
II
(II: 71.9%, I: 0.29%)
